- Test system: CAL-27 cells (human tongue squamous cell carcinoma cells)
- Assay comment: alamarBlue proliferation assay with CAL-27 cells
- Type: cell-based
- Experimental conditions: Homo sapiens, 120 h, 40 μM, relative to DMSO basis level 1.0, read-out: weighted arithmetic mean (AVEw) of normalized fluorescence intensity, activity range
Property label: activity at 40 µM

| Compound | Property label | Reported |
| --- | --- | --- |
| CC(C)c1ccc(Oc2ccc(C(=O)NO)cn2)cc1 | activity at 40 µM | 0 to 20% |
| CCOC(=O)c1ccc(Oc2ccc(C3(C(F)(F)C(F)(F)F)CC3)cc2)cc1 | activity at 40 µM | 70 to 80% |
| CCCCc1ccc(Oc2ccc(C(=O)NO)cc2)cc1 [Compound 167, 4-(4-butylphenoxy)-N-hydroxybenzamide] | activity at 40 µM | 0 to 20% |
| NC(=O)c1ccc(Oc2ccc(C3CC4CCC3C4)cc2)cc1 (racemic) | activity at 40 µM | 60 to 70% |
| Oc1ccc(C=Cc2cc(O)cc(O)c2)cc1 [RES, resveratrol, reference compound] | activity at 40 µM | 50% |
| NC(=O)c1ccc(Oc2ccc(C34CC5CC(CC(C5)C3)C4)cc2)cc1 | activity at 40 µM | 20 to 40% |
| O=C(NO)c1ccc(Oc2ccc(C3CC4CCC3CC4)cc2)nc1 (centres unmarked) | activity at 40 µM | 0 to 20% |

Below: the item to evaluate.
*Q* State its activity at 40 µM: CCOC(=O)c1ccc(Oc2ccc(C3(C(F)(F)F)CC3)cc2Cl)cc1
*A* 20 to 40%
